TARGET SYSTEM: GST-ZfQQR (zinc finger ZfQQR) (artificial)
Sequence (chain, as listed by the source): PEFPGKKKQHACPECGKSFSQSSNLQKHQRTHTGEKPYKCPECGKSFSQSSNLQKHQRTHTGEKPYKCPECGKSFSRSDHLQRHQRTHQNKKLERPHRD
ASSAY METHOD TEXT: filter; 25 mM Tris pH 8.0, 100 mM KCl, 20 uM ZnSO4, 2 mM DTT, poly dI-dC, room temperature; protein called zinc finger ZfQQR, GST fusion is the purified form described
RUN CONDITIONS: tags: N-terminal GST (pGEX-4T-1); label: radioactive
Method: To confirm that the consensus sequence obtained after five rounds of SELEX is bound by the zinc finger, a constant KD was measured using the nitrocellulose filter binding method. The assay was performed with radioactively labeled substrates described in the literature (LDNA, LRNA) and a consensus sequence (CDNA, CRNA) see FIG. 16: Binding reaction contained 2 nM of labeled substrate, 2 μg poly dI-dC as a nonspecific competitor, 25 mM Tris pH 8.0, 100 mM KCl, 20 μM ZnSO₄, 2 mM DTT. […]
Kd values by entry
Just the number please, in nM, no unit attached.

SELEX consensus hybrid (CDNA/CRNA) (DNA:RNA) DNA: TCACTGGTCGGTGGGAATCCTC RNA: GAGGAUUCCCACCGACCAGUGA ... 155

Let us move to another entry and its Kd.
For reference, reported Kd for literature ZfQQR site hybrid (LDNA/LRNA) (DNA:RNA) DNA: TCACTGGGGAAGAAGAATCCTC RNA: GAGGAUUCUUCUUCCCCAGUGA stands at 188
